Assay: Metabolic stability in human liver microsomes
Type: in vitro ADME
Conditions: both sexes, pooled liver microsomes, pH 7.4, 0.5 mg/ml protein, read-out: T1/2 LM human
Test Readout: half-life at 1 μM

1) O=c1cc(-c2ccc(CCCC[P+](c3ccccc3)(c3ccccc3)c3ccccc3)cc2)oc2c(O)c(O)ccc12 :: 18 min

###

Molecular target: MAO-A (Homo sapiens, UniProt P21397)
Sequence (P21397 whole entry, species assumed): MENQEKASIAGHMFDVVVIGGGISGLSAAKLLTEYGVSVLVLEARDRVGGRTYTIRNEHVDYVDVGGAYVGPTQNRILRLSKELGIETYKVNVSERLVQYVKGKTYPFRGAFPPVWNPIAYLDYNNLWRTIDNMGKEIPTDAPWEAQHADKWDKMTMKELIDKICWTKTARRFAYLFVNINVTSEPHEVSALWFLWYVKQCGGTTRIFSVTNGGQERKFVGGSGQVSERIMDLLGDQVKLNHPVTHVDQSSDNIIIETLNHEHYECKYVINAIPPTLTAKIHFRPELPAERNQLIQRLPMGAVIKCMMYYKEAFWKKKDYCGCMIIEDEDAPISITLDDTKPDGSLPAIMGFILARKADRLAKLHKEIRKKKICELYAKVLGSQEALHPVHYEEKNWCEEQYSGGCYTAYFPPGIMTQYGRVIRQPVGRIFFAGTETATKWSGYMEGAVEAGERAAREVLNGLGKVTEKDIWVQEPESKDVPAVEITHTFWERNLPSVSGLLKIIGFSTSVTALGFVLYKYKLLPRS
Test Readout: IC50 (µM)

1) CCNC(=O)Oc1ccc2c(=O)cc(-c3ccc(CCCC[P+](c4ccccc4)(c4ccccc4)c4ccccc4)cc3)oc2c1OC(=O)NCC.[Br-] [SND124] :: 20

###

Experiment: Metabolic stability in mouse intestine microsomes
Format: in vitro ADME
Settings: male, CD1, mouse, pooled intestine microsomes, pH 7.4, intestinal microsomes, 0.5 mg/ml protein, read-out: T1/2 IM mouse
Test Readout: half-life at 1 μM (min)

1) O=c1cc(-c2ccc(CCCC[P+](c3ccccc3)(c3ccccc3)c3ccccc3)cc2)oc2c(O)c(O)ccc12 :: 27.6

###

Assay: Metabolic stability in human intestine microsomes
Assay type: in vitro ADME
Details: both sexes, pooled intestine microsomes, pH 7.4, intestinal microsomes, 0.5 mg/ml protein, read-out: T1/2 IM human
Test Readout: half-life at 1 μM (min)

1) O=c1cc(-c2ccc(CCCC[P+](c3ccccc3)(c3ccccc3)c3ccccc3)cc2)oc2c(O)c(O)ccc12 :: 30.8

Values were extracted from patent US20220411448A1.
